Tested on: Marburg virus (MARV)
protocol: organism not typed
Format: cell-based
protocol-conditions: Vero, 72 h, read-out: Percent viral inhibition MARV
Each entry gets False if its inhibition at 1 µM stays under 50%, and True if its inhibition at 1 µM is 50% or above.

Solved cases below.
O=S(=O)(O)CCC1CCN(Cc2cc(Oc3ccc(N4CCNCC4)nc3)nc(-c3cc(Cl)cc(Cl)c3)c2)CC1 : True
CC(=O)NCC1CCN(Cc2cc(Oc3cnc(N4CCN(CCCS(C)(=O)=O)CC4)nc3)nc(-c3cc(Cl)cc(Cl)c3)c2)CC1 : True
CC(=O)NCC1CCN(Cc2cc(Oc3ccc(N4CCN(CCS(C)(=O)=O)CC4)nc3)cc(-c3cc(Cl)cc(Cl)c3)c2)CC1 : False
CC(=O)NCC1CCN(Cc2cc(Oc3ccc(N4CC[N+](C)([O-])CC4)nc3)nc(-c3cc(Cl)cc(Cl)c3)c2)CC1 : True
CC(C)(O)CCN1CCN(c2ncc(Oc3cc(CN4CCC(CC(=O)O)CC4)cc(-c4cc(Cl)cc(Cl)c4)n3)cn2)CC1 : False

Okay, now this compound:
Asked: Form field: inhibition at 1 µM at least 50%? Entry: CC(=O)NCC1CCN(Cc2cc(Oc3cnc(N4CCN(C(C)CC(=O)O)CC4)nc3)nc(-c3cc(Cl)cc(Cl)c3)c2)CC1 (stereo not drawn)
Given back: True

# credit: patent US20230011571A1
